test: Pharmacokinetic study in rats (IV and PO, plasma); assay type: in vivo; conditions: Sprague-Dawley, rat, SD rats, PO, 15 mg/kg

# SMILES_REPR, Cmax / ng/mL
rows = [
    ("N#CC(C#N)=NNc1ccc2nc(N3C4CCC3COC4)oc2c1", 2050),
]

###

tested on: Tau-BiFC cells; test: Cell viability (stained nuclei count) in Tau-BiFC cells; type: cell-based; conditions: @10 µM; Tau-BiFC cell line; Forskolin-only group = 100%
Recorded measurements of Cell viability (% @10µM), one per entry

# COMPOUND, Cell viability (% @10µM), %
rows = [
    ("N#CC(C#N)=NNc1ccc2nc(NC(=O)N3CCOCC3)sc2c1", 97),
    ("N#CC(C#N)=NNc1ccc2nc(N3CC[C@H](F)C3)oc2c1", 100),
    ("N#CC(C#N)=NNc1ccc2nc(N3CC4CCC(C3)O4)oc2c1", 99),
    ("CC1CN(C(=O)Nc2nc3ccc(NN=C(C#N)C#N)cc3s2)CC(C)O1 (stereo not drawn)", 98),
    ("Cn1c(N2C3CCC2COC3)nc2cc(NN=C(C#N)C#N)ccc21", 100),
    ("N#CC(C#N)=NNc1ccc2nc(-c3ccc(F)cc3)sc2c1 [Comparative compound 3, reference compound]", 50),
    ("CC1CN(c2nc3ccc(NN=C(C#N)C#N)cc3o2)CCO1 (stereo not drawn)", 100),
    ("CC(C)N1CCN(c2nc3ccc(NN=C(C#N)C#N)cc3s2)CC1", 99),
    ("N#CC(C#N)=NNc1ccc2nc(N3CCOCC3)sc2c1", 100),
    ("N#CC(C#N)=NNc1ccc2nc(N3CCNCC3)oc2c1", 94),
    ("CN(C)c1ccc(-c2nc3ccc(NN=C(C#N)C#N)cc3s2)cc1 [Comparative compound 4, reference compound]", 80),
    ("Cn1c(N2CCOCC2)nc2ccc(NN=C(C#N)C#N)cc21", 100),
    ("N#CC(C#N)=NNc1cc2oc(N3CCOCC3)nc2cc1Cl", 100),
    ("N#CC(C#N)=NNc1ccc2nc(N3CC4CCC(C3)O4)sc2c1", 92),
    ("Cn1c(N2CCOCC2)nc2cc(NN=C(C#N)C#N)ccc21", 104),
    ("CC1CN(c2nc3ccc(NN=C(C#N)C#N)cc3s2)CC(C)O1 (stereo not drawn)", 109),
    ("N#CC(C#N)=NNc1ccc2nc(-c3cccs3)sc2c1 [Comparative compound 5, reference compound]", 70),
    ("Cc1nc2ccc(NN=C(C#N)C#N)cc2s1 [Comparative compound 1, reference compound]", 100),
]

###

target: CYP2D6 (Homo sapiens); construct: human liver microsomes (0.25 mg/mL); from tissue; host or cells: human liver microsomes; assay: CYP isoenzyme activity inhibition in human liver microsomes, CYP2D6; assay type: in vitro ADME; conditions: 10 µM compound; human liver microsomes 0.25 mg/mL; relative to control without compound
Sequence (P10635 whole entry): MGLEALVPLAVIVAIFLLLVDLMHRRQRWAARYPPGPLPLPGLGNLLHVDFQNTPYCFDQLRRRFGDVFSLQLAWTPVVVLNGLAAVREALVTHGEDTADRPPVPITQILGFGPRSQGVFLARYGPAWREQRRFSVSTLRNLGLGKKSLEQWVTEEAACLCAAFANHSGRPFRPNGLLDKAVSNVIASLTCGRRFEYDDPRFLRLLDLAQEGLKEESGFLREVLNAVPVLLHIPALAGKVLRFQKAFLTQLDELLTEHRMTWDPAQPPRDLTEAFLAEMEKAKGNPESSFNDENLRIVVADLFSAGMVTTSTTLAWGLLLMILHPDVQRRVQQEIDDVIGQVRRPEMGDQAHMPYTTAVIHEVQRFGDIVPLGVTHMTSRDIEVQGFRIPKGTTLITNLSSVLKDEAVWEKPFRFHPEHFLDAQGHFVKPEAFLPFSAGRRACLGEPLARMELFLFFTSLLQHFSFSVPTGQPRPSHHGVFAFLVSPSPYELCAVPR
VALUE_KIND: CYP2D6 (% activity)

# MOLECULE, OPERATOR, RECORDED_NUMBER
data = [
    ("CCn1c(N2CCOCC2)nc2cc(NN=C(C#N)C#N)ccc21", "=", 97.9),
    ("CC1CN(c2nc3ccc(NN=C(C#N)C#N)cc3o2)CC(C)O1 (centres unmarked)", "=", 97),
    ("CCn1c(N2CCOCC2)nc2ccc(NN=C(C#N)C#N)cc21", "=", 92.1),
    ("CC(=O)N1CCN(c2nc3ccc(NN=C(C#N)C#N)cc3s2)CC1", "=", 88.9),
    ("N#CC(C#N)=NNc1ccc2nc(N3CCOCC3)sc2c1", ">", 100),
]

###

target: CYP2C19 (Homo sapiens); construct: human liver microsomes (0.25 mg/mL); from tissue; host or cells: human liver microsomes; assay: CYP isoenzyme activity inhibition in human liver microsomes, CYP2C19; type: in vitro ADME; details: 10 µM compound; human liver microsomes 0.25 mg/mL; relative to control without compound
Sequence (P33261 whole entry): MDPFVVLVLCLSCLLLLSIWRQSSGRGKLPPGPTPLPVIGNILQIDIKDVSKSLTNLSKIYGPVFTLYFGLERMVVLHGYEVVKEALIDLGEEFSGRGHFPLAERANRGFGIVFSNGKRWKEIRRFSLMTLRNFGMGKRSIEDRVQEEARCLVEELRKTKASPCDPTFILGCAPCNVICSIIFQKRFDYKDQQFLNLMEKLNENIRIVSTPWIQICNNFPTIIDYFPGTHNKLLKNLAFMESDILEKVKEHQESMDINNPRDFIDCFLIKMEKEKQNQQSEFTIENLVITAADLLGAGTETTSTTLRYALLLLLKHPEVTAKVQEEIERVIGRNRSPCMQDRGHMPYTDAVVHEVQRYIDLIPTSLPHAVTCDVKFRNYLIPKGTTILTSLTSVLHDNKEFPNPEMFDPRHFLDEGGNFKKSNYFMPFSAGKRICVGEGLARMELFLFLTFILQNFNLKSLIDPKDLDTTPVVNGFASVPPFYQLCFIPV
Values of CYP2C19 (% activity) greater than or equal to 80 % activity map to 1; values below map to -1.

# MOLECULE, QUALITATIVE_LABEL
records = [
    ("CC1CN(c2nc3ccc(NN=C(C#N)C#N)cc3s2)CC(C)O1 (stereo not drawn)", 1),
    ("N#CC(C#N)=NNc1ccc2oc(N3CCOCC3)nc2c1", 1),
    ("N#CC(C#N)=NNc1ccc2nc(NC(=O)N3CC4CCC(C3)O4)sc2c1", -1),
    ("N#CC(C#N)=NNc1ccc2nc(N3CCOCC3)sc2c1", 1),
    ("COC1CCN(c2nc3ccc(NN=C(C#N)C#N)cc3o2)CC1", 1),
    ("N#CC(C#N)=NNc1ccc2nc(N3CC[C@@H](F)C3)oc2c1", 1),
    ("CC(C)N1CCN(c2nc3ccc(NN=C(C#N)C#N)cc3o2)CC1", 1),
    ("N#CC(C#N)=NNc1ccc2nc(N3CCOCC3)oc2c1", 1),
    ("CCn1c(N2CCOCC2)nc2ccc(NN=C(C#N)C#N)cc21", -1),
    ("N#CC(C#N)=NNc1ccc2nc(N3CC4CCC(C3)O4)sc2c1", -1),
    ("CC1CN(c2nc3ccc(NN=C(C#N)C#N)cc3o2)CC(C)O1 (stereo not drawn)", 1),
    ("Cn1c(N2CCOCC2)nc2cc(NN=C(C#N)C#N)ccc21", 1),
    ("CC(=O)N1CCN(c2nc3ccc(NN=C(C#N)C#N)cc3s2)CC1", 1),
    ("N#CC(C#N)=NNc1ccc2nc(N3CCNCC3)sc2c1", -1),
    ("COC1CCN(c2nc3ccc(NN=C(C#N)C#N)cc3s2)CC1", 1),
    ("CC1COCCN1c1nc2ccc(NN=C(C#N)C#N)cc2s1 (stereo not drawn)", 1),
    ("N#CC(C#N)=NNc1ccc2sc(N3CCOCC3)nc2c1", 1),
    ("CN1CCN(c2nc3ccc(NN=C(C#N)C#N)cc3s2)CC1", 1),
    ("CC1CN(c2nc3ccc(NN=C(C#N)C#N)cc3s2)CCO1 (stereo not drawn)", 1),
    ("CC(=O)N1CCN(c2nc3ccc(NN=C(C#N)C#N)cc3o2)CC1", 1),
    ("Cn1c(N2CCOCC2)nc2ccc(NN=C(C#N)C#N)cc21", 1),
    ("CN1CCN(c2nc3ccc(NN=C(C#N)C#N)cc3o2)CC1", 1),
    ("CC1COCCN1c1nc2ccc(NN=C(C#N)C#N)cc2o1 (stereo not drawn)", 1),
    ("N#CC(C#N)=NNc1ccc2nc(N3CCOCC3)[nH]c2c1", 1),
    ("N#CC(C#N)=NNc1ccc2nc(N3C4CCC3COC4)oc2c1", -1),
    ("N#CC(C#N)=NNc1ccc2nc(N3CCNCC3)oc2c1", 1),
    ("CC(C)N1CCN(c2nc3ccc(NN=C(C#N)C#N)cc3s2)CC1", 1),
    ("CC1CN(c2nc3ccc(NN=C(C#N)C#N)cc3o2)CCO1 (stereo not drawn)", 1),
]

###

test: Pharmacokinetic study in rats (IV and PO, plasma); type: in vivo; settings: Sprague-Dawley, rat, SD rats, PO, 15 mg/kg

# SMILES_REPR, half-life [h]
rows = [
    ("N#CC(C#N)=NNc1ccc2nc(N3C4CCC3COC4)oc2c1", 1.6),
]

###

biological target: TDP-43 protein (Homo sapiens, UniProt Q13148); construct: BiFC fluorescent-protein fragments (two complementary halves); experiment: TDP-43 aggregation inhibition in TDP-43-BiFC cell model (Forskolin-induced)
Sequence (Q13148 whole entry, the tested form may be a part): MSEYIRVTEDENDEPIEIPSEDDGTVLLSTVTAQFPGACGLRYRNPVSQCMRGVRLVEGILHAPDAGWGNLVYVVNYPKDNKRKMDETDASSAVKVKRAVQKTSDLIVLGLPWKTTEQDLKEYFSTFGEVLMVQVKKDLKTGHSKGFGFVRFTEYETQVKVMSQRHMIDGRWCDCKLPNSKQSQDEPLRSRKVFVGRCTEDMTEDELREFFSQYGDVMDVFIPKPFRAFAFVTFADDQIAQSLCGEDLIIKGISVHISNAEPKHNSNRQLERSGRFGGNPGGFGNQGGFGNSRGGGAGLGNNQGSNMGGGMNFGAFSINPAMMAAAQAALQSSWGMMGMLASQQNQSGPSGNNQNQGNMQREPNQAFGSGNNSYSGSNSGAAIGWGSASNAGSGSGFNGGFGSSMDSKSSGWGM
Reported IC50 by item:

# COMPOUND, ASSAYED_SYSTEM, UNIT_OF_MEASURE, IC50
measured = [
    ("N#CC(C#N)=NNc1ccc2nc(N3CCNCC3)sc2c1 [Compound 24]", "TDP-43 protein (Homo sapiens, UniProt Q13148)", "µM", 0.053),
    ("Cn1c(N2C3CCC2COC3)nc2cc(NN=C(C#N)C#N)ccc21 [Compound 35]", "TDP-43 protein (Homo sapiens, UniProt Q13148)", "µM", 0.192),
    ("N#CC(C#N)=NNc1ccc2nc(N3C4CCC3COC4)oc2c1 [Compound 20]", "TDP-43 protein (Homo sapiens, UniProt Q13148)", "µM", 0.14),
    ("N#CC(C#N)=NNc1ccc2nc(N3CCCCC3)oc2c1 [Compound 46]", "TDP-43 protein (Homo sapiens, UniProt Q13148)", "µM", 0.32),
    ("CCn1c(N2CCOCC2)nc2cc(NN=C(C#N)C#N)ccc21 [Compound 33]", "TDP-43 protein (Homo sapiens, UniProt Q13148)", "µM", 0.124),
    ("N#CC(C#N)=NNc1ccc2nc(N3CCCC3)oc2c1 [Compound 45]", "TDP-43 protein (Homo sapiens, UniProt Q13148)", "µM", 0.371),
    ("CC(=O)N1CCN(c2nc3ccc(NN=C(C#N)C#N)cc3s2)CC1 [Compound 30]", "TDP-43 protein (Homo sapiens, UniProt Q13148)", "µM", 0.146),
    ("N#CC(C#N)=NNc1ccc2nc(N3CC4CCC(C3)O4)sc2c1 [Compound 23]", "TDP-43 protein (Homo sapiens, UniProt Q13148)", "µM", 0.107),
    ("CC(=O)N(N=C(C#N)C#N)c1ccc2nc(N3CCOCC3)sc2c1 [Compound 37]", "TDP-43 protein (Homo sapiens, UniProt Q13148)", "µM", 0.0007),
    ("Cn1c(N2C3CCC2COC3)nc2ccc(NN=C(C#N)C#N)cc21 [Compound 34]", "TDP-43 protein (Homo sapiens, UniProt Q13148)", "µM", 0.01),
    ("CCn1c(N2CCOCC2)nc2ccc(NN=C(C#N)C#N)cc21 [Compound 32]", "TDP-43 protein (Homo sapiens, UniProt Q13148)", "µM", 0.099),
    ("N#CC(C#N)=NNc1ccc2nc(N3CC4CCC(C3)O4)oc2c1 [Compound 26]", "TDP-43 protein (Homo sapiens, UniProt Q13148)", "µM", 0.248),
    ("N#CC(C#N)=NNc1ccc2nc(N3CCNCC3)oc2c1 [Compound 25]", "TDP-43 protein (Homo sapiens, UniProt Q13148)", "µM", 0.053),
]
